Test system: HepG2
Assay Notes: Growth inhibition of human HepG2 cells after 48 hrs by SRB assay
Assay type: functional
Measurement Parameters: HepG2, 48 h
Experimental Readout: GI50 (µM)

Please review the entries below; each comes with its answer.
COc1ccc(Nc2ccnc3ccsc23)cc1 ... 22.1
Fc1cccc(Nc2ccnc3ccsc23)c1 ... 32
COc1cccc(Nc2ccnc3ccsc23)c1 ... 5.02

[A] COc1ccccc1Nc1ccnc2ccsc12
[B] COc1ccccc1Oc1ccnc2ccsc12
[C] Fc1ccccc1Nc1ccnc2ccsc12
Sort the 3 molecules by GI50; largest first, smallest last. Response format: the labels, sorted as the prompt asks.
B, C, A

[a] Fc1ccccc1Oc1ccnc2ccsc12
[b] COc1cccc(Oc2ccnc3ccsc23)c1
Dear colleague, could you let me know whether a or b has the lower recorded GI50? Thanks. The response must carry the label of the picked entry.
b

[P] COc1ccc(Oc2ccnc3ccsc23)cc1
[Q] COC(=O)c1sc2cccnc2c1Nc1ccc(OC)cc1N
[R] Fc1ccc(Nc2ccnc3ccsc23)cc1
// sort entries: GI50, high to low I would appreciate it if you listed the labels in the requested order.
P, R, Q
(P: 53.2 µM, R: 26.3 µM, Q: 1 µM)

// data source = ChEMBL document CHEMBL2434926
